Record set: Ki | D(4) dopamine receptor (Homo sapiens) | literature, multiple sources.
Biological target: D(4) dopamine receptor (Homo sapiens)
Sequence (P21917 whole entry): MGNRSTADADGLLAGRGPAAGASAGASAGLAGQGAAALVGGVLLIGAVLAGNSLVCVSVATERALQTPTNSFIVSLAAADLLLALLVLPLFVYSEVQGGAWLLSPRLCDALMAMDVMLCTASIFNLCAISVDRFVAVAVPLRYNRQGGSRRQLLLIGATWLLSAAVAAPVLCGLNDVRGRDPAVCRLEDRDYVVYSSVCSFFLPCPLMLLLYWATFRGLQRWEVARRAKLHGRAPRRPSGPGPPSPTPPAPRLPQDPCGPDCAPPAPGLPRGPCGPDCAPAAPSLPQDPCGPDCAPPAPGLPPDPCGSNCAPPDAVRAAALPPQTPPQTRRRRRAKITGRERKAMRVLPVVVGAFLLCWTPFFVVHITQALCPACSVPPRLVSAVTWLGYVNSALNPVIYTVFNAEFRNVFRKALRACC
experimental endpoint: Ki

[[record]]
molecule = "O=C(NCCC(O)CN1CCN(c2cccc(Cl)c2Cl)CC1)c1cc2ccccc2o1 (configuration not stated)"
system_name = "D(4) dopamine receptor (Homo sapiens)"
experimental_endpoint = "Ki"
test_value = "> 10000 nM"

[[record]]
molecule = "O=C(NCc1ccccc1)[C@@H]1Cc2ccccc2N1C(=O)CN1CCN(Cc2ccc(Cl)cc2)CC1"
system_name = "D(4) dopamine receptor (Homo sapiens)"
experimental_endpoint = "Ki"
test_value = "> 1000 nM"

[[record]]
molecule = "COc1ccc(NC(=O)N2CCN(c3ccc(C(F)(F)F)cc3)CC2)cc1N1CCN(C)CC1"
system_name = "D(4) dopamine receptor (Homo sapiens)"
experimental_endpoint = "Ki"
test_value = "> 10000 nM"

[[record]]
molecule = "Clc1cccc(N2CCN(CCCCc3cn(-c4ccc5c(c4)Cc4ccccc4-5)nn3)CC2)c1Cl"
system_name = "D(4) dopamine receptor (Homo sapiens)"
experimental_endpoint = "Ki"
test_value = "4450 nM"

[[record]]
molecule = "OC1CCc2c(c3ccccc3n2CCCN2CCN(c3ccccc3)CC2)C1 (configuration not stated)"
system_name = "D(4) dopamine receptor (Homo sapiens)"
experimental_endpoint = "Ki"
test_value = "> 4000 nM"

[[record]]
molecule = "COc1ccccc1N1CCN(CCCc2cn(-c3ccc(-c4ccsc4)cc3)nn2)CC1"
system_name = "D(4) dopamine receptor (Homo sapiens)"
experimental_endpoint = "Ki"
test_value = "90 nM"

[[record]]
molecule = "CCCCn1cc(CCCOc2ccc(C(=O)NCCCCN3CCN(c4ccccc4OC)CC3)cc2OC)nn1"
system_name = "D(4) dopamine receptor (Homo sapiens)"
experimental_endpoint = "Ki"
test_value = "84 nM"


* * *

Record set: Ki | D(4) dopamine receptor (Homo sapiens) | literature, multiple sources.
experimental endpoint: Ki (nM)

[[record]]
test_smiles = "C#CC1=CC[C@H](N(CCC)CCCCNC(=O)c2cc3ccccn3n2)CC1"
units = "nM"
result_qualifier = "="
test_value = 37

[[record]]
test_smiles = "CN1CCc2cc(Cl)c(O)cc2[C@H]2c3cccc(/C=N/OCc4ccccc4)c3CC[C@@H]21"
units = "nM"
result_qualifier = "="
test_value = 8340

[[record]]
test_smiles = "COc1cc2c(cc1OC)C1=NO[C@@H](CN3CCN(C/C(C)=C/c4ccccc4)CC3)[C@@H]1CO2"
units = "nM"
result_qualifier = ">"
test_value = 1000

[[record]]
test_smiles = "OC1(c2ccc(Cl)cc2)CCN(Cc2ccn(-c3ccccc3)c2)CC1"
units = "nM"
result_qualifier = "="
test_value = 325

[[record]]
test_smiles = "COc1cc(C)ccc1N1CCN(CCCCOc2ccc3c(c2)NC(=O)CC3)CC1"
units = "nM"
result_qualifier = "="
test_value = 27.2

